The entries below are paired with their reported Kd.
Target: T1, 14‐3‐3τ (human, UniProt P27348 1-245)
T1 construct: 14-3-3 tau/theta, human, full-length protein from the pProEx HTb-His-14-3-3 construct; Written as the protomer; tag removal is told only for the ∆C proteins; also called τ/θ; source: E. coli BL21(DE3), purified (Ni2+-NTA, dialysis)
T1 sequence (looked up): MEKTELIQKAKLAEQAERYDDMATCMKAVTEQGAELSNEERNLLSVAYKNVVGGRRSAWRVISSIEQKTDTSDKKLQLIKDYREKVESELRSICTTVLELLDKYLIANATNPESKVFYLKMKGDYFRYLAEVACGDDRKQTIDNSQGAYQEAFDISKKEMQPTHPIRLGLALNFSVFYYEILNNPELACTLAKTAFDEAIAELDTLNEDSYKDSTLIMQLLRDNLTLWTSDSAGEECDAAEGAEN
Assay: fluorescence polarisation; fluorescence anisotropy, direct titration: 14-3-3 protein titrated (1/2 dilution series) against 50 nM FAM-Ahx tracer peptide; 10 mM HEPES, 150 mM NaCl, 0.1% Tween 20, 0.1% BSA, pH 7.4; 384 well plates, triplicates; protein concentration as 14-3-3 monomer; 1:1 fit, biphasic curves fitted as two separate 1:1 events (Kd1, Kd2)
Settings: both partners purified
[ ]: non-standard residue; d: D form. pS = N[C@@H](COP(=O)(O)O)C(=O)O; FAM = 5,6-carboxyfluorescein; Ahx = NCCCCCC(=O)O
Could you give me the number in µM? Just the number is fine.

- Binder: "{FAM-Ahx}-SRRRAI[pS]ETEEN-NH2 (hDM2 (human double minute 2 protein), human, residues 160-171; Tracer form used in the FA assays; also called hDM2_(160‐171) ^Ser166; source: synthetic peptide (Fmoc SPPS, HPLC purified)) [FAM‐Ahx‐hDM2_(160‐171) ^pSer166]"
  Measured property: "Kd"
  Display unit: "µM"
  Data value: 29.3

For the binder {FAM-Ahx}-DCRRTI[pS]APVVRPK-NH2 (Tracer form used in the FA assays; source: synthetic peptide (Fmoc SPPS, HPLC purified)) [FAM‐Ahx‐hDMX_(361‐374) ^pSer367] , what Kd is on record?
1.2

Query: Kd; subject: {FAM-Ahx}-SKLTHSL[pS]TSDITAI-NH2 (hDMX (human double minute 4 protein, hDM4), human, residues 335-349; Tracer form used in the FA assays; source: synthetic peptide (Fmoc SPPS, HPLC purified)) [FAM‐Ahx‐hDMX_(335‐349) ^pSer342]
108

// data source = paper PMC9541495
